Values were extracted from paper PMC11855827.

Tested on: C. elegans
Assay: microbe, parasite or virus in culture
Conditions: Caenorhabditis elegans, 24 h, read-out: Percentage of motility inhibition 24 h, Table S2, C. elegans SS assay, 110 μM, 24 h, averages of 4 data points
assay endpoint: inhibition at 110 µM
Give the figure together with its unit, number first.

Example cases with answers are listed next.
>  <molecule>
CC[C@H]1CN2CC[C@@]3(C(=O)Nc4ccccc43)[C@@H]2C[C@@H]1/C(=C\OC)C(=O)OC [Isorhynchophylline]

>  <target>
C. elegans

>  <inhibition at 110 µM>
0%

$$$$
>  <molecule>
O=c1cc(-c2ccc(O)cc2)oc2cc(O[C@@H]3O[C@H](CO)[C@@H](O)[C@H](O)[C@H]3O[C@@H]3OC[C@](O)(CO)[C@H]3O)cc(O)c12 [Apiin]

>  <target>
C. elegans

>  <inhibition at 110 µM>
0%

$$$$
>  <molecule>
CN1Cc2c(ccc3c2OCO3)[C@@H]2[C@H]1c1cc3c(cc1C[C@@H]2O)OCO3 [Chelidonine]

>  <target>
C. elegans

>  <inhibition at 110 µM>
0%

$$$$

Now examine the next entry.
Data request: Report inhibition at 110 µM for O=C(/C=C/c1ccc(O)cc1)c1ccc(O)cc1O [Isoliquiritigenin] please.
Data returned: 4%

* * *

Tested on: C. elegans
Assay: microbe, parasite or virus in culture
Conditions: Caenorhabditis elegans, 24 h, read-out: Percentage of motility inhibition 24 h, Table S2, C. elegans SS assay, 110 μM, 24 h, averages of 4 data points
Cut-off 20% on inhibition at 110 µM, inclusive. At or above means y; below means n.

>  <compound>
CC(C)(C)OC(=O)N[C@H]1CCCCC/C=C\[C@@H]2C[C@@]2(C(=O)NS(=O)(=O)C2CC2)NC(=O)[C@@H]2C[C@@H](OC(=O)N3Cc4cccc(F)c4C3)CN2C1=O [Danoprevir]

>  <group label>
y

$$$$
>  <compound>
Oc1c(Cl)cc(Cl)c2cccnc12 [Chloroxine]

>  <group label>
y

$$$$
>  <compound>
COc1cc(O)c2c(c1)O[C@H](c1ccc(O)cc1)CC2=O [Sakuranetin]

>  <group label>
n

$$$$

Data request: Could you please find out whether C=C[C@@]12CN(C)[C@H]3C[C@]14C(=Nc1ccccc14)[C@H]1C[C@@H]2[C@@H]3CO1 [Koumine] has inhibition at 110 µM that meets 20% or exceeds it?
Data returned: n

Data request: Please give the result for C=C(C)[C@@H]1CC[C@]2(C)CC[C@]3(C)[C@H](CC[C@@H]4[C@@]5(C)CCC(=O)C(C)(C)[C@@H]5CC[C@]43C)[C@@H]12 [Lupenone] too.
Data returned: n

Data request: Next: C[C@H]1[C@H](C)CC[C@]2(C(=O)O)CC[C@]3(C)C(=CC[C@@H]4[C@@]5(C)CC[C@H](O)C(C)(C)[C@@H]5CC[C@]43C)[C@H]12 [Ursolic acid]
Data returned: n

* * *

Test system: C. elegans
Settings: Table S2, C. elegans SS assay, 110 μM, 0 h, averages of 4 data points
assay endpoint: Percentage of motility inhibition 0 h (%)
Numbers only, in %.

Illustrative cases are given below, each with its answer.
>  <compound>
Cc1ccc(C(N)=O)cn1

>  <readout unit>
%

>  <Percentage of motility inhibition 0 h>
0

$$$$
>  <compound>
C[N+](C)(C)C[C@H](O)CC(=O)[O-]

>  <readout unit>
%

>  <Percentage of motility inhibition 0 h>
7

$$$$
>  <compound>
C[C@@H]1CCO[C@H]2Cn3cc(C(=O)NCc4ccc(F)cc4F)c(=O)c([O-])c3C(=O)N12.[Na+] [Dolutegravir (sodium)]

>  <readout unit>
%

>  <Percentage of motility inhibition 0 h>
0

$$$$
>  <compound>
CC(C)=CCc1cc(C(=O)/C=C/c2ccc(O)cc2)c(O)cc1O

>  <readout unit>
%

>  <Percentage of motility inhibition 0 h>
39

$$$$
>  <compound>
COc1c(O)cc2oc(-c3ccc(O)c(O)c3)cc(=O)c2c1O

>  <readout unit>
%

>  <Percentage of motility inhibition 0 h>
4

$$$$

// input: 2 compounds below; output: Percentage of motility inhibition 0 h for each
1. COc1cc2c(cc1OC)-c1c(C)c3ccc(OC)c(OC)c3c[n+]1CC2.[Cl-] [Dehydrocorydaline (chloride)]
2. CN1C[C@H](O)C[C@H]1C(=O)O [4‐Hydroxyhygric acid]

Data returned:
[0, 21]

# return Percentage of motility inhibition 0 h for each item in the list
1. Oc1cccnc1 [3‐Hydroxypyr idine]
2. O=C(O[C@@H]1Cc2c(O)cc(O)cc2O[C@@H]1c1cc(=O)c(O)c2c(O)c(O)cc([C@H]3Oc4cc(O)cc(O)c4C[C@H]3O)c2c1)c1cc(O)c(O)c(O)c1 [Theaflavin‐3‐gallate]

Data returned:
1: 18; 2: 8
